Test system: Escherichia coli TOP10
assay: shrunken log2 fold change of peptide-encoding DNA abundance (4.5 h post-induction vs induction); higher = less antimicrobial activity (less host growth inhibition)
measurement-conditions: time post-induction: 4.5 h; library: site-saturation at positions 5, 18, 19, 20
Label scheme, based on shrunken log2 fold change: zone 1: < 0.03; zone 2: ≥ 0.03 and < 0.5; zone 3: ≥ 0.5

| seq | label |
| --- | --- |
| RRIRFRPPRLPRPRPRPGQGPRP | zone 2 |
| RRIRSRPPRLPRPRPRPQWVPRP | zone 2 |
| RRIRLRPPRLPRPRPRPYHQPRP | zone 1 |
| RRIRFRPPRLPRPRPRPMQNPRP | zone 1 |
| RRIRGRPPRLPRPRPRPTDQPRP | zone 3 |
| RRIRDRPPRLPRPRPRPVKRPRP | zone 1 |
| RRIRWRPPRLPRPRPRPMETPRP | zone 3 |
| RRIRWRPPRLPRPRPRPYAYPRP | zone 2 |
| RRIRQRPPRLPRPRPRPPLNPRP | zone 3 |
| RRIRMRPPRLPRPRPRPQDCPRP | zone 2 |
| RRIRLRPPRLPRPRPRPITRPRP | zone 2 |
| RRIRDRPPRLPRPRPRPIIPPRP | zone 1 |
| RRIRARPPRLPRPRPRPAKMPRP | zone 2 |
| RRIRERPPRLPRPRPRPKMGPRP | zone 1 |
| RRIRFRPPRLPRPRPRPRPAPRP | zone 3 |

* * *

Test system: Escherichia coli TOP10
assay: shrunken log2 fold change of peptide-encoding DNA abundance (4.5 h post-induction vs induction); higher = less antimicrobial activity (less host growth inhibition)
measurement-conditions: time post-induction: 4.5 h; library: site-saturation at positions 5, 18, 19, 20
Measured shrunken log2 fold change accompanies every entry in the list below.
quantity-kind: shrunken log2 fold change

| seq | endpoint-value |
| --- | --- |
| RRIRVRPPRLPRPRPRPQCDPRP | -0.0528 |
| RRIRRRPPRLPRPRPRPVRMPRP | 0.497 |
| RRIRLRPPRLPRPRPRPLFTPRP | -0.232 |
| RRIRWRPPRLPRPRPRPSNYPRP | -0.707 |
| RRIRGRPPRLPRPRPRPHQWPRP | 0.134 |
| RRIRVRPPRLPRPRPRPEPWPRP | 0.128 |
| RRIRIRPPRLPRPRPRPVRKPRP | -0.48 |
| RRIRGRPPRLPRPRPRPMVKPRP | 0.00813 |

* * *

Test system: Escherichia coli TOP10
assay: shrunken log2 fold change of peptide-encoding DNA abundance (4.5 h post-induction vs induction); higher = less antimicrobial activity (less host growth inhibition)
measurement-conditions: time post-induction: 4.5 h; library: site-saturation at positions 5, 18, 19, 20
quantity-kind: shrunken log2 fold change

| seq | endpoint-value |
| --- | --- |
| RRIRLRPPRLPRPRPRPNLGPRP | -0.0507 |
| RRIRERPPRLPRPRPRPQTMPRP | -0.157 |
| RRIRIRPPRLPRPRPRPYTKPRP | -0.203 |
| RRIRARPPRLPRPRPRPQKNPRP | 0.0395 |
| RRIRKRPPRLPRPRPRPTGSPRP | 0.423 |
| RRIRPRPPRLPRPRPRPFHFPRP | -0.339 |
| RRIRGRPPRLPRPRPRPEQCPRP | 0.0643 |
| RRIRDRPPRLPRPRPRPWSHPRP | 0.0226 |
| RRIRTRPPRLPRPRPRPEYVPRP | 0.0172 |
| RRIRKRPPRLPRPRPRPPATPRP | 0.773 |
| RRIRQRPPRLPRPRPRPISWPRP | -0.12 |
| RRIRIRPPRLPRPRPRPGACPRP | -0.243 |
| RRIRRRPPRLPRPRPRPLEAPRP | 0.404 |
| RRIRERPPRLPRPRPRPKGWPRP | 0.493 |
| RRIRSRPPRLPRPRPRPILMPRP | -0.172 |

* * *

Tested on: Escherichia coli TOP10
assay: shrunken log2 fold change of peptide-encoding DNA abundance (4.5 h post-induction vs induction); higher = less antimicrobial activity (less host growth inhibition)
measurement-conditions: time post-induction: 4.5 h; library: site-saturation at positions 5, 18, 19, 20
Measured shrunken log2 fold change accompanies every entry in the list below.

| seq | tgt | shrunken log2 fold change |
| --- | --- | --- |
| RRIRHRPPRLPRPRPRPNPMPRP | Escherichia coli TOP10 | -0.00731 |
| RRIRFRPPRLPRPRPRPVHNPRP | Escherichia coli TOP10 | -0.104 |
| RRIRQRPPRLPRPRPRPIELPRP | Escherichia coli TOP10 | -0.293 |
| RRIRERPPRLPRPRPRPNFEPRP | Escherichia coli TOP10 | -0.188 |
| RRIRQRPPRLPRPRPRPAPRPRP | Escherichia coli TOP10 | 0.966 |
| RRIRTRPPRLPRPRPRPKHMPRP | Escherichia coli TOP10 | -0.081 |
| RRIRTRPPRLPRPRPRPGQAPRP | Escherichia coli TOP10 | -0.228 |
| RRIRTRPPRLPRPRPRPYPHPRP | Escherichia coli TOP10 | 0.0321 |
| RRIRDRPPRLPRPRPRPFQQPRP | Escherichia coli TOP10 | -0.0599 |
| RRIRRRPPRLPRPRPRPEGMPRP | Escherichia coli TOP10 | 1.27 |
| RRIRRRPPRLPRPRPRPFMWPRP | Escherichia coli TOP10 | 0.00755 |
| RRIRHRPPRLPRPRPRPNDMPRP | Escherichia coli TOP10 | -0.26 |
| RRIRQRPPRLPRPRPRPKWAPRP | Escherichia coli TOP10 | -0.0411 |
| RRIRSRPPRLPRPRPRPFFNPRP | Escherichia coli TOP10 | 0.00333 |
| RRIRDRPPRLPRPRPRPHRCPRP | Escherichia coli TOP10 | -0.00141 |

* * *

Tested on: Escherichia coli TOP10
assay: shrunken log2 fold change of peptide-encoding DNA abundance (4.5 h post-induction vs induction); higher = less antimicrobial activity (less host growth inhibition)
measurement-conditions: time post-induction: 4.5 h; library: site-saturation at positions 5, 18, 19, 20
Label scheme, based on shrunken log2 fold change: range A = under -0.1, range B = from -0.1 up to 0.07, range C = 0.07 and over

| seq | label |
| --- | --- |
| RRIRMRPPRLPRPRPRPIIEPRP | range B |
| RRIRYRPPRLPRPRPRPHVLPRP | range B |
| RRIRTRPPRLPRPRPRPYRRPRP | range B |
| RRIRQRPPRLPRPRPRPHECPRP | range B |
| RRIRWRPPRLPRPRPRPYETPRP | range A |
| RRIRDRPPRLPRPRPRPWCLPRP | range A |
| RRIRMRPPRLPRPRPRPKGMPRP | range C |
| RRIRWRPPRLPRPRPRPGRFPRP | range C |
| RRIRLRPPRLPRPRPRPHEMPRP | range A |
| RRIRTRPPRLPRPRPRPDTRPRP | range A |
| RRIRDRPPRLPRPRPRPRENPRP | range C |
| RRIRHRPPRLPRPRPRPWNRPRP | range A |
| RRIRQRPPRLPRPRPRPKCIPRP | range B |
| RRIRERPPRLPRPRPRPFVSPRP | range C |

* * *

Test system: Escherichia coli TOP10;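 note: peptides expressed intracellularly from a pBAD plasmid library in pooled LB shake-flask culture, induced with 0.3% L-arabinose, DNA abundance read by NGS, three biological replicates, DESeq2 with apeglm shrinkage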
assay: shrunken log2 fold change of peptide-encoding DNA abundance (4.5 h post-induction vs induction); higher = less antimicrobial activity (less host growth inhibition)
measurement-conditions: time post-induction: 4.5 h; library: site-saturation at positions 5, 18, 19, 20
Measured shrunken log2 fold change accompanies every entry in the list below.

| seq | shrunken log2 fold change |
| --- | --- |
| RRIRVRPPRLPRPRPRPSPVPRP | 0.216 |
| RRIRIRPPRLPRPRPRPVKHPRP | -0.107 |
| RRIRGRPPRLPRPRPRPGDDPRP | 0.911 |
| RRIRARPPRLPRPRPRPGTDPRP | 0.565 |
| RRIRSRPPRLPRPRPRPHSTPRP | -0.312 |
| RRIRLRPPRLPRPRPRPNCLPRP | -0.61 |
| RRIRVRPPRLPRPRPRPTITPRP | -0.178 |
| RRIRQRPPRLPRPRPRPMFVPRP | 0.493 |
| RRIRIRPPRLPRPRPRPIWIPRP | -0.269 |
| RRIRERPPRLPRPRPRPADPPRP | -0.35 |
| RRIRLRPPRLPRPRPRPGQVPRP | 0.318 |
| RRIRRRPPRLPRPRPRPNNHPRP | -0.374 |
| RRIRHRPPRLPRPRPRPHTVPRP | -0.606 |
| RRIRDRPPRLPRPRPRPHGAPRP | 0.211 |
| RRIRIRPPRLPRPRPRPMNYPRP | -0.0706 |
| RRIRERPPRLPRPRPRPTDGPRP | 0.158 |
| RRIRNRPPRLPRPRPRPCECPRP | 0.0219 |
| RRIRSRPPRLPRPRPRPEPHPRP | 0.0658 |
| RRIRVRPPRLPRPRPRPGVCPRP | 0.186 |
| RRIRARPPRLPRPRPRPRTCPRP | 0.181 |
| RRIRDRPPRLPRPRPRPPRRPRP | 0.635 |
| RRIRVRPPRLPRPRPRPSDMPRP | -0.519 |
| RRIRERPPRLPRPRPRPPCTPRP | 0.0136 |
| RRIRKRPPRLPRPRPRPVRDPRP | 0.48 |
| RRIRARPPRLPRPRPRPGMTPRP | 0.261 |
| RRIRLRPPRLPRPRPRPPVRPRP | 0.426 |
| RRIRKRPPRLPRPRPRPCLYPRP | -0.0745 |
| RRIRHRPPRLPRPRPRPHSSPRP | -0.0394 |
| RRIRWRPPRLPRPRPRPNKGPRP | -0.346 |
| RRIRDRPPRLPRPRPRPLCAPRP | 0.783 |
| RRIRKRPPRLPRPRPRPCERPRP | 0.019 |
| RRIRVRPPRLPRPRPRPFCQPRP | -0.203 |
